Data origin: patent US8314239B2

Item-by-item account of EC50
TESTED_SYSTEM: ΔF508-CFTR (Homo sapiens, UniProt P13569, DEL508-508)
Sequence (P13569 with tags, fused parts or gaps DEL508-508): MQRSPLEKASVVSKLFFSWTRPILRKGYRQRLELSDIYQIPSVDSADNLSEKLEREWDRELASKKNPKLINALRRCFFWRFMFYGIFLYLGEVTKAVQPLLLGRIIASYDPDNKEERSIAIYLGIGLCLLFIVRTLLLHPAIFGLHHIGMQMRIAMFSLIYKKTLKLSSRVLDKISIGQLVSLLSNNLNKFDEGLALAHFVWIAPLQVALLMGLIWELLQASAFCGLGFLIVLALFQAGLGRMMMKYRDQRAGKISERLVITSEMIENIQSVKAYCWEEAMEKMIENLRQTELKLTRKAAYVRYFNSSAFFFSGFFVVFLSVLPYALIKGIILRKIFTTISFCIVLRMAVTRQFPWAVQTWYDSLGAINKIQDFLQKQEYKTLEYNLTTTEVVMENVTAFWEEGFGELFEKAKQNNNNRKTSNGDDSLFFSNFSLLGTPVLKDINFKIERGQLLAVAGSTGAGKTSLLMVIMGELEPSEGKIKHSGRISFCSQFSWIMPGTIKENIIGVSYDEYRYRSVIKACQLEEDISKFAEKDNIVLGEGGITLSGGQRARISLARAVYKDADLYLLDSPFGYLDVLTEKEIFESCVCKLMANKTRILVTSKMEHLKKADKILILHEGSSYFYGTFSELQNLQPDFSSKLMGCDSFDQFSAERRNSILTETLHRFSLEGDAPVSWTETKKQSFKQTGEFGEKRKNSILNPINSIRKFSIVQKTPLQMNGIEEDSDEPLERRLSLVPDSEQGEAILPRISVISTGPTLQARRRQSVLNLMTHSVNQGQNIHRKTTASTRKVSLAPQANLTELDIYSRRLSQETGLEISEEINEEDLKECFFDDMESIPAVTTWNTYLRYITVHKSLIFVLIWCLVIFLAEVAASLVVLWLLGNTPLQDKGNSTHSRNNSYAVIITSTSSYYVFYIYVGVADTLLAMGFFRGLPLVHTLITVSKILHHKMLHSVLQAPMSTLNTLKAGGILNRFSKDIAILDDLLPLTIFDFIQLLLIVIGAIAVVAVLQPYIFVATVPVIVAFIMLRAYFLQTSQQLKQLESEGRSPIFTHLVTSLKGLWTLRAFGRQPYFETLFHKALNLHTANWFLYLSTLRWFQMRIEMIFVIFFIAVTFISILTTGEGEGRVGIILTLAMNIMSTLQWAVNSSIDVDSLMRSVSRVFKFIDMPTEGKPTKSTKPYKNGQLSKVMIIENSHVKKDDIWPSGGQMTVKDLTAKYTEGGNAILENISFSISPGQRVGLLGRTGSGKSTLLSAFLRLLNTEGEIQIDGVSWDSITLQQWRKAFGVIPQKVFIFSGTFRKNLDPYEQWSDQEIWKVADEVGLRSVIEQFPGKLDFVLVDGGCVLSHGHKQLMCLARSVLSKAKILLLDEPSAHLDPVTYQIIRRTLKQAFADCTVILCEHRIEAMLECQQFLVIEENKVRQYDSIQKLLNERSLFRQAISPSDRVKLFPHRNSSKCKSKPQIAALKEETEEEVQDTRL
EXPERIMENTAL_DETAILS: Membrane potential optical assay for ΔF508-CFTR potentiation (double-addition HTS, FLIPR III)
Structures can show the parent of a compound that is named as a salt.

Some compounds with known EC50 results, for comparison:
[[record]]
compound = "Cc1cc(N2C3CCC2CC3)ncc1NC(=O)c1c[nH]c2cccc(C)c2c1=O [Compound 1, hydrochloride]"
endpoint = "EC50"
assay_result = "< 2 µM"

[[record]]
compound = "Cc1cccc2[nH]cc(C(=O)Nc3ccc(N4C5CCC4CC5)nc3C(F)(F)F)c(=O)c12"
endpoint = "EC50"
assay_result = "< 2 µM"


Turning now to a further compound:
Entry O=C(Nc1ccc(N2C3CCC2CC3)nc1C(F)(F)F)c1c[nH]c2cccc(C(F)(F)F)c2c1=O ; assay system ΔF508-CFTR (Homo sapiens, UniProt P13569, DEL508-508); EC50 recorded at < 2 µM
